- Test system: SK-MEL-2 melanoma
- method.notes: NCI-60 one-dose screen, 48 h (100 = growth as untreated, 0 = no growth, -100 = all killed)
- study.conditions: 10 µM unless noted
- Protocol: Growth inhibition of the SK-MEL-2 human tumor cell line is measured as a screen for anti-cancer activity. Cells are grown in 96 well plates and exposed to the test compound for 48 hours. Compounds are tested at a single concentration, which is 10^-5 M for most compounds. The reported endpoint is percent growth (GI% or GIPRCNT), where numbers from 0 - 100% represent growth inhibition, and numbers from -100% - 0 represent cell death. For example, a value of 40 represents 60% growth inhibition. […]
The panel holds about 83,000 compounds, 20% with a hit somewhere; the sample as a whole holds those more often.
For each entry below, report its growth value.
Give just the number in %; leave the unit off.

Which measured growth belongs to O=C(Nc1c2ccccc2nc2ccccc12)c1ccccc1CN1C(=O)c2ccccc2C1=O , tested on SK-MEL-2 melanoma?
43

Which measured growth belongs to COc1ccc(OC)c(/C=C/C(=O)N/N=C/c2ccccc2)c1 , tested on SK-MEL-2 melanoma?
-1.33

Which measured growth belongs to CN1C(=O)CNC(=O)[C@H](NC(=O)c2nc3ccccc3cc2O)CSSC[C@H]1C(=O)NCCc1nc2ccccc2cc1O , tested on SK-MEL-2 melanoma?
-17.1

Which measured growth belongs to CCCCCCCCCCCCCCCCCCOc1ccc(CC(=O)OCC[N+]2(C)CCCCC2)cc1 , tested on SK-MEL-2 melanoma?
104

Which measured growth belongs to COc1ccc(/C=N/Nc2cc(=O)[nH]c3ccc(C)cc23)cc1 , tested on SK-MEL-2 melanoma?
81.7

Which measured growth belongs to Oc1ccc(C#CCOc2ccccc2)cc1CNCCN(Cc1ccccn1)Cc1ccccn1 , tested on SK-MEL-2 melanoma?
61.2

Which measured growth belongs to Cn1cc(-c2cc3ncnc(Nc4ccc(CC(=O)Nc5cc(C(C)(C)C)on5)cc4)c3s2)cn1 , tested on SK-MEL-2 melanoma?
14

Which measured growth belongs to CCC(=O)Nc1ccc(-c2nc(-c3cccc(OC)c3)c(-c3ccnc(Br)c3)[nH]2)cc1 , tested on SK-MEL-2 melanoma?
70.2

###

- System: K-562 leukemia
- method.notes: NCI-60 one-dose screen, 48 h
- study.conditions: 10 µM unless noted
This is part of a sample that, as a whole, favours compounds with a hit. Of some 83,000 tested, about 20% had one in any assay. Activity calls are given as the source filed them. Rule for the calls: active = growth percent below 10; inactive = the rest.
Choose one outcome from this list and give only that: 1 (yes) (active), 0 (no) (inactive)

# outcome recorded in this test, key = COc1ccc2nc(NC(=O)c3cccnc3Nc3ccc(S(N)(=O)=O)cc3)sc2c1
0 (no)

# outcome recorded in this test, key = Cc1c(C(=O)N[C@@H](Cc2ccccc2)C(=O)C(=O)NCc2ccc(F)cc2)[nH]c2ccccc2c1=O
0 (no)

# outcome recorded in this test, key = COc1cc(C(=O)/C=C/c2c(Cl)nc3sccn23)cc(OC)c1OC
0 (no)

# outcome recorded in this test, key = CSc1ccc2c(c1)c(CCN)c(C)n2Cc1ccc(Cl)c(Cl)c1
1 (yes)

# outcome recorded in this test, key = COc1ccc2[nH]c(-c3ccccc3)c(/C=C(\C#N)S(=O)(=O)c3ccccc3)c2c1
1 (yes)

# outcome recorded in this test, key = CCCCCCN1C(=O)/C(=c2\sc3n(c2=O)C2C(NN=3)N(CC)C(=O)N2CC)c2ccccc21 (stereo not drawn)
1 (yes)

# outcome recorded in this test, key = CCOC(=O)Nc1ccc(-c2nc(-c3cccc(OC)c3)c(-c3ccnc(Br)c3)[nH]2)cc1
0 (no)

# outcome recorded in this test, key = O=C(O)CCC(=O)Nc1nnc(-c2ccccc2)s1
0 (no)

# outcome recorded in this test, key = COc1ccc(-c2csc(NC(=O)N3CCN(c4cc5c(cc4F)c(=O)c(C(=O)O)cn5C4CC4)CC3)n2)cc1
0 (no)

# outcome recorded in this test, key = S=c1nc(-c2ccccc2)oc(=NC2CCCCC2)n1C1CCCCC1
1 (yes)

# outcome recorded in this test, key = Cc1ccc2c(n1)C(=O)C(Cl)=C(Nc1ccccc1C(C)C)C2=O
0 (no)

# outcome recorded in this test, key = O=C(CCN1C(=O)/C(=C/c2ccc(O)cc2)SC1=S)Nc1ccccc1
0 (no)

# outcome recorded in this test, key = O=C1c2cccc3cccc(c23)C(=O)N1Nc1nc(N2CCOCC2)nc(N2CCN(c3ccccc3)CC2)n1
0 (no)

# outcome recorded in this test, key = CCOC(=O)c1cn2ncnc(Oc3ccc(NC(=O)NCCN(CC)CC)c(Cl)c3)c2c1C
1 (yes)

# outcome recorded in this test, key = Cc1nc2cnc(N)c(C#Cc3cncc(C(=O)Nc4ccc(CN5CCN(C)CC5)c(C(F)(F)F)c4)c3)c2nc1C
1 (yes)

# outcome recorded in this test, key = COc1cccc2c(=O)c3c(sc12)c(N1CCNCC1)nc1ccccc13
1 (yes)

# outcome recorded in this test, key = NC1CCN(c2nc(Nc3cccc(C(F)(F)F)c3)c3c(=O)[nH]ccc3n2)CC1
1 (yes)

# outcome recorded in this test, key = CCCCNC(=O)Oc1ccc(/C(=C(\C)c2ccc(Cl)cc2)c2ccc(OCCN(CC)CC)cc2)cc1
1 (yes)

# outcome recorded in this test, key = CNCCCNc1nc2ccccc2c2c(=O)c3cc(F)ccc3sc12
1 (yes)

# outcome recorded in this test, key = Cc1cccc2c3c(sc12)C(c1ccc(Cl)cc1)C(C#N)=C(N)O3 (stereo not drawn)
1 (yes)

# outcome recorded in this test, key = O=C(CCCCCCSc1nc(-c2ccccc2)cc(-c2ccccc2)n1)NO
0 (no)

# outcome recorded in this test, key = COC(=O)[C@H](C)NC(=O)NC(=O)NC(=O)CI
1 (yes)

# outcome recorded in this test, key = CCOC(=O)c1cn2ncnc(Oc3ccc(NC(=O)NCCN4CCN(C)CC4)c(Cl)c3)c2c1C
0 (no)

# outcome recorded in this test, key = C[C@H](C(=O)Nc1ccc(S(N)(=O)=O)cc1)S(=O)(=O)c1ccccc1
0 (no)

# outcome recorded in this test, key = Cn1cc(C(=O)c2nc(-c3cn(C)c4ccc(F)cc34)no2)c2cc(F)ccc21
0 (no)

# outcome recorded in this test, key = CC[C@H](C)C(=O)O[C@H]1CCC=C2C=C[C@H](C)[C@H](CC[C@@H]3CC=CC(=O)O3)[C@H]21
0 (no)

# outcome recorded in this test, key = COc1cccc(Cc2nn3cc(-c4ccccc4)nc3s2)c1
0 (no)

# outcome recorded in this test, key = Cn1cc(-c2ccc3cc(-c4ccc(CC(=O)Nc5cc(C(C)(C)C)nn5C)cc4)cnc3c2)cn1
0 (no)

# outcome recorded in this test, key = CCC(=O)Nc1ccc(-c2nc(-c3cccc(OC)c3)c(-c3ccnc(Br)c3)[nH]2)cc1
0 (no)

# outcome recorded in this test, key = CNc1ccc(Nc2cccc(C)c2)c2c1C(=O)c1ccccc1C2=O
0 (no)

# outcome recorded in this test, key = C#Cc1cccc(NC(=O)Nc2ccccc2NC(=O)CCl)c1
1 (yes)

# outcome recorded in this test, key = COc1nc2ccc(C)cc2cc1-c1nc2c(cnn2-c2ccccc2)c(=O)[nH]1
0 (no)

# outcome recorded in this test, key = CCc1nnc(NC(=O)c2nnn(-c3ccccc3)c2-c2ccco2)s1
0 (no)

###

- Tested on: BT-549 breast
- method.notes: NCI-60 one-dose screen, 48 h
- study.conditions: 10 µM unless noted
This is part of a sample that, as a whole, favours compounds with a hit. Of some 83,000 tested, about 20% had one in any assay. Active and inactive are the calls of the source. Rule for the calls: active = growth percent below 10; inactive = the rest.
Choose one outcome from this list and give only that: 1 for active, 0 for inactive

# outcome recorded in this test, key = N/C(=N\c1nc2ccccc2s1)NC(=O)Nc1cccc2ccccc12
0

# outcome recorded in this test, key = O=C(O)CCC/C=C\C[C@H]1C=CC(=O)/C1=C/C[C@@H](O)CCc1cccc(C(F)(F)F)c1
1

# outcome recorded in this test, key = COc1cc(C(=O)/C=C/c2ccc(OCCCCCC[P+](c3ccccc3)(c3ccccc3)c3ccccc3)cc2)cc(OC)c1OC
1

# outcome recorded in this test, key = NC[C@@H]1O[C@H](O[C@@H]2[C@@H](CO)OC(O[C@@H]3[C@@H](O)[C@H](N)C[C@H](N)[C@H]3OC3O[C@H](CN)[C@@H](O)[C@H](O)[C@H]3N)[C@@H]2O)[C@H](N)[C@@H](O)[C@@H]1O (stereo not given in full)
0

# outcome recorded in this test, key = Cc1ccc(C(=O)NN2C(=O)CSC2c2cccc([N+](=O)[O-])c2)cn1 (stereo not given)
0

# outcome recorded in this test, key = Cc1ccc(S(=O)(=O)Oc2ccc(NC(=O)c3ccc(Cl)cc3)cc2)cc1
0

# outcome recorded in this test, key = COc1ccc(-c2[nH]c3ccc(OC)cc3c2/C=C(\C#N)S(=O)(=O)c2ccccc2)cc1
0

# outcome recorded in this test, key = COc1ccc(-c2nn(C(=O)c3cc(OC)c(OC)c(OC)c3)c3cc(N)ccc23)cc1
0

# outcome recorded in this test, key = CC1=C(C)C(=O)C(Nc2cccc(C(=O)OC(C)(C)C)c2)=C(Br)C1=O
0

# outcome recorded in this test, key = CCCCOc1nc2c(C)cccc2cc1-c1cc(-c2ccc(Cl)cc2)nc(-c2ccc(Cl)cc2)c1
0

# outcome recorded in this test, key = O=c1c2cccc(Cl)c2sc2c(NCCCNCCO)nc3ccccc3c12
0

# outcome recorded in this test, key = Cc1nc(NC(=O)COc2ccc(/C=C3\Cc4ccc(Cl)cc4C3=O)cc2)sc1C
0

# outcome recorded in this test, key = COc1ccc(-c2csc(NC(=O)N3CCN(c4cc5c(cc4F)c(=O)c(C(=O)O)cn5C4CC4)CC3)n2)cc1
1

# outcome recorded in this test, key = CCOC(=O)C1=C(N)Oc2c(sc3c(C)cccc23)C1c1ccc(Cl)cc1 (stereo not given)
0

# outcome recorded in this test, key = Oc1ccc(CCl)c2cccnc12
0

# outcome recorded in this test, key = c1ccc(Nc2cc(-c3cccnc3)[nH]n2)cc1
0

# outcome recorded in this test, key = NCCOc1ncccc1/C=C1\c2ccccc2-c2ccc(C(F)F)cc21
0

# outcome recorded in this test, key = COc1ccc(C(Cc2ccccc2)NCCN2CCOCC2)cc1 (stereo not given)
0

# outcome recorded in this test, key = c1ccc(CO[C@H]2CO[C@H]3[C@@H]2OC[C@@H]3Oc2ccc(Nc3ncnc4ccsc34)cc2)cc1
0

# outcome recorded in this test, key = Cc1ccccc1C(=O)NN
0
